- assay_name: Human HepG2 cell viability assay in 384 well format
- Type: toxicity, cell-based
- Set-up: dose 125 nL, time 70.5 hour; concentration not given beside the values
- applied_conditions: HepG2 cells, read-out: Inhibition
Recorded measurements of cytotoxicity at 70.5 h, one per entry
property_measured: cytotoxicity at 70.5 h

>>> result_value("CCS(=O)(=O)N1CCC(OC)c2ccccc2N(CC(=O)NC)C(=O)C1 (stereo unspecified)")
"-1.92%"
>>> result_value("CCN1CCC(N2CCC(C(=O)N(C)C)CC2)CC1")
"-5.59%"
>>> result_value("O=C(Nc1ccc(F)cc1)N1CCC2(CCC(=O)N(C3CC3)C2)CC1")
"-11.6%"
>>> result_value("Cc1nc(C)c2c(n1)CCN(C(=O)CN(C)C)CC2")
"2.27%"
>>> result_value("Cc1cc(CN2CCC(CNC(=O)c3ccc(C#N)cc3)C2)[nH]n1 (stereo unspecified)")
"-0.514%"
>>> result_value("CNc1cncc(C2CCCN2Cc2ccnc(N3CCCC3)n2)n1 (stereo unspecified)")
"16.1%"
>>> result_value("Cc1nc(N)c2ccc(C3CCCCN3)nc2n1 (stereo unspecified)")
"-1.97%"
>>> result_value("Cc1cc(N2CCC(N(C)C(=O)c3sccc3C)CC2)nc(C)n1")
"-4.75%"
>>> result_value("Cn1nnc(NCc2ccc(-c3ccc(Cl)cc3)o2)n1")
"-4.59%"
>>> result_value("Cc1nc(C)c(CC(=O)N2C[C@@H]3CC[C@H](C2)N(CC2CCC2)C3)c(=O)[nH]1")
"-6.37%"
>>> result_value("c1coc(CN2CCOC3(COCCN(Cc4ccncc4)C3)C2)c1 (stereo unspecified)")
"-3.4%"
>>> result_value("c1ccc2oc(CN3CCCCC3Cn3cncn3)nc2c1 (stereo unspecified)")
"-4.46%"
>>> result_value("CC(NCc1nnc2n1CCCC2)c1nc(C(C)(C)C)no1 (stereo unspecified)")
"-13.6%"
>>> result_value("CC1=N[C@@]2(CC[C@@H]3CN(Cc4ccc(C)cc4)C[C@@H]32)C(=O)N1CC1CC1")
"-12.4%"
>>> result_value("CN1C(=O)C(c2ccccc2)CC12CCN(CCN)CC2 (stereo unspecified)")
"-5.41%"
>>> result_value("Cc1ccc(CC(=O)N2CCCCC2c2nc(C)cs2)cn1 (stereo unspecified)")
"-14.4%"

Origin of measurements: ChEMBL document CHEMBL3507680
